PROTOCOL SUMMARY: Pharmacokinetic tests in male SD rats
Assay type: in vivo
PROTOCOL CONDITIONS: rat, in vivo, oral gavage (po), 10 mg/kg, plasma
ENDPOINT: Tmax (min)
Answers are plain numbers, in min.

Fill in the blank: the reported Tmax of `CCc1cc(Nc2ncc(Br)c(Nc3ccccc3P(C)(C)=O)n2)c(OC)cc1N1CCN(C(=O)Cn2nc(C)c(-c3cc4c(cc3F)c(N3CCC(=O)NC3=O)nn4C)c2C)CC1` is ____.
40.2

----------
System: A549
PROTOCOL SUMMARY: Cell anti-proliferation experiment (CTG)
Assay type: cell-based
PROTOCOL CONDITIONS: Homo sapiens, A549, 72 h, A549 (wild-type EGFR), class symbol
pIC50: −log10 of the molar value.
So I've got a bunch of molecules here, and I need their pIC50 values.

// solved cases for pIC50 follow
MOLECULE	ENDPOINT	RESULT
CCc1cc(Nc2ncc(Br)c(Nc3ccccc3C(=O)NC)n2)c(OC)cc1N1CCN(C(=O)CN2CCC(c3cc4c(cc3F)c(N3CCC(=O)NC3=O)nn4C)C(F)(F)C2)CC1 (stereo not shown)	pIC50	< 6.00
CCc1cc(Nc2ncc(Cl)c(Nc3ccccc3P3(=O)CCCC3)n2)c(OC)cc1N1CC2(CCN(C(=O)CN3CCC(c4cc5c(cc4F)c(N4CCC(=O)NC4=O)nn5C)C(F)(F)C3)CC2)C1 (stereo not shown)	pIC50	< 6.00
COc1cc(N2CCN(C(=O)CN3CCC(c4ccc5c(N6CCC(=O)NC6=O)nn(C)c5c4)CC3)CC2)ccc1Nc1ncc(Cl)c(Nc2ccccc2)n1 [DZL-2, reference compound]	pIC50	6.00 to 7.00

For each listed entry, give its pIC50.
1. CCc1cc(Nc2ncc(Cl)c(Nc3ccccc3P(C)(C)=O)n2)c(OCC(F)(F)F)nc1N1CCN(C(=O)CN2CCC(c3cc4c(cc3F)c(N3CCC(=O)NC3=O)nn4C)C(F)(F)C2)CC1 (stereo not shown)
2. CCc1cc(Nc2ncc(Cl)c(Nc3ccccc3C(=O)NC)n2)c(OC)cc1N1CCN(CCN2CCC(c3cc4c(cc3F)c(N3CCC(=O)NC3=O)nn4C)CC2)CC1

< 6.00
7.00 to 8.00

Dear reader, for each entry below, please note its pIC50.
1. CCc1cc(Nc2ncc(Br)c(Nc3ccccc3P3(=O)CCCC3)n2)c(OC)cc1N1CC2(CCN(C(=O)CN3CCC(c4cc5c(cc4F)c(N4CCC(=O)NC4=O)nn5C)CC3)CC2)C1
2. COc1cc(N2CCC(CN3CCN(c4ccc5c(c4)C(=O)N(C4CCC(=O)NC4=O)C5=O)CC3)CC2)c(-c2cnn(C)c2)cc1Nc1ncc(Br)c(Nc2ccc(C3CC3)cc2P(C)(C)=O)n1 (stereo not shown) [DZL-1, reference compound]
3. CCc1cc(Nc2ncc(Cl)c(Nc3ccccc3P(C)(C)=O)n2)c(OC)cc1N1CCC2(CCN(C(=O)CN3CCC(c4cc5c(cc4F)c(N4CCC(=O)NC4=O)nn5C)C(F)(F)C3)CC2)C1 (stereo not shown)
4. CCc1cc(Nc2ncc(Cl)c(Nc3ccccc3P(C)(C)=O)n2)c(OC)cc1N1CCC2(CC1)CN(C(=O)CN1CCC(c3cc4c(cc3F)c(N3CCC(=O)NC3=O)nn4C)C(F)(F)C1)C2 (stereo not shown)
5. CCc1cc(Nc2ncc(Cl)c(Nc3ccccc3P(C)(C)=O)n2)c(OC)cc1N1CCC(N(C)C(=O)CN2CCC(c3cc4c(cc3F)c(N3CCC(=O)NC3=O)nn4C)C(F)(F)C2)CC1 (stereo not shown)

1. 6.00 to 7.00
2. < 6.00
3. 6.00 to 7.00
4. 6.00 to 7.00
5. < 6.00
